Target: 5-LOX (Homo sapiens, UniProt P09917)
Sequence (P09917 1-674): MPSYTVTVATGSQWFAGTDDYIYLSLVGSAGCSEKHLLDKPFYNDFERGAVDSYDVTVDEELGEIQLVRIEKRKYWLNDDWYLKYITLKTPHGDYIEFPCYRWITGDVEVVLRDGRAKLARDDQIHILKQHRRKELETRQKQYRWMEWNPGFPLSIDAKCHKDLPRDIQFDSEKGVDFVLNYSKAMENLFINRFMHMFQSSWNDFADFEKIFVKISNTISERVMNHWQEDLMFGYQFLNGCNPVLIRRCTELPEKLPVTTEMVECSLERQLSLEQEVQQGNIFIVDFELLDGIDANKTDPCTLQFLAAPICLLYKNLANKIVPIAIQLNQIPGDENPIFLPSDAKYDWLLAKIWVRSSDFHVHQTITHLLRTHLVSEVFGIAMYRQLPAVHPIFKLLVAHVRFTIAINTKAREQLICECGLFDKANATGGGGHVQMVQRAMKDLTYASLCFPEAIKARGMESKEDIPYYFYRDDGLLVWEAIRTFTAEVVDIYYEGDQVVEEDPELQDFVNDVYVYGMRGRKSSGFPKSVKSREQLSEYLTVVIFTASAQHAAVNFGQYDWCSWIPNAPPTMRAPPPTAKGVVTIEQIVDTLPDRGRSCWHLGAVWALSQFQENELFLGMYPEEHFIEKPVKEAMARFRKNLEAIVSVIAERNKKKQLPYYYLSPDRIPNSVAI
Test: 5-LOX fluorescent assay (in vitro lipoxygenase inhibition)
Type: biochemical
Conditions: recombinant 5-LOX cell lysate, 20 μM AA, DHR123 fluorescence; several values in a cell = repeat determinations; read-out: IC50 (μM) values for in vitro lipoxygenase inhibition, 5-LOX
Readout: IC50

Completed entries (count: 2):
Fc1c(Nc2ccccc2)ccc2c1CCN2CCn1cncn1: 0.27 µM
Fc1ccc(C(Nc2ccc(NCCn3cncn3)cc2)C(F)(F)F)cc1 (centres unmarked): 0.69 µM

The recorded IC50 for entry CN(C)CCOc1c(NCc2ccccc2)cccc1Nc1ncccc1Cl equals 5.73 µM

The recorded IC50 for entry CN(C)CCCc1c(Nc2ccccc2)cccc1-c1cccc2c1NCC2 equals 0.23 µM

The recorded IC50 for entry c1ccc(CNc2cc(-c3ccccc3)c(NCCn3cncn3)cn2)cc1 equals 0.61 µM

The recorded IC50 for entry COc1ccc(CNc2cccc(N)c2OCCN(C)C)cc1 equals 7.31 µM

The recorded IC50 for entry Fc1ccc(Nc2ccc(NCC3(CN4CCCC4)COC3)c(C(F)(F)F)c2)cc1 equals 0.06 µM

The recorded IC50 for entry c1ccc(CNc2ccc(-c3ccccc3)c(NCCn3cncn3)n2)cc1 equals 0.66 µM

The recorded IC50 for entry FC(F)(F)C(Nc1ccc(NCCn2cncn2)c(-c2ccccc2)c1)c1ccccc1 (centres unmarked) equals 0.14 µM

The recorded IC50 for entry c1ccc(Nc2ccc(-c3ccccc3)c(NCCn3cncn3)c2)cc1 equals 0.35 µM
